# assay system: Notum (Homo sapiens, UniProt Q6P988, C330S)
# Sequence (Q6P988 81-451 C330S): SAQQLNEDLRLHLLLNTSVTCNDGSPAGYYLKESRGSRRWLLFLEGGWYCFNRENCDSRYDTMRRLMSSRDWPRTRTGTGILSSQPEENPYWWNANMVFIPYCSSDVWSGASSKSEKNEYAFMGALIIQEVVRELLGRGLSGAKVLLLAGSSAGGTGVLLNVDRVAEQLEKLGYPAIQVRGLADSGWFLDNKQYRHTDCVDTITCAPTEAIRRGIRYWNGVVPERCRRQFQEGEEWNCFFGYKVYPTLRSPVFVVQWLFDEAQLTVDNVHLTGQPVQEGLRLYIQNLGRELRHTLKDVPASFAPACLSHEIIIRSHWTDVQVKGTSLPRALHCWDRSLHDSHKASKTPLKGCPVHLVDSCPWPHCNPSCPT
# recorded conditions: supplementary CSV
Returns one of Yes or No; Yes when LE is >= 0.4.

Query: Given COc1ccc(-c2cc[nH]n2)c(O)c1 , state whether its LE is at least 0.4.
Reply: Yes

Query: Given Nc1nonc1N1CCCCC1 , state whether its LE is at least 0.4.
Reply: Yes

* * *

Overview of recorded IC50 for various compounds
# assay system: Notum (Homo sapiens, UniProt Q6P988, C330S)
# test details: biochemical
# recorded conditions: Notum IC50, OPTS substrate; 10-point curves 30 nM to 1 mM; mean ± s.d. of N = 2–4 unless stated; Table 1 and figures

Example cases with answers are listed next.
O=C(O)COc1ccc(N2C(=O)CCC2=O)cc1 [compound 39] : > 1000 µM
CCNC(=O)Nc1cc(C)on1 [compound 1] : > 1000 µM

Looking up Nc1ccc(S(=O)(=O)Nc2ccccn2)cc1 [compound 11] , I found its IC50 recorded as > 1000 µM
